surface tension liquid-gas values by entry
RUN_PARAMETERS: 308.15 K, Ring tensiometer
± gives the expanded uncertainty stated by the source.

COMPOUND: CCCC[n+]1ccc(C)cc1.O=S(=O)([N-]S(=O)(=O)C(F)(F)F)C(F)(F)F
surface tension liquid-gas: 34.5 ± 0.6 mN/m

COMPOUND: CCCC[n+]1cccc(C)c1.O=S(=O)([N-]S(=O)(=O)C(F)(F)F)C(F)(F)F
surface tension liquid-gas: 35.1 ± 0.6 mN/m

COMPOUND: CCCC[n+]1cccc(C)c1.F[B-](F)(F)F [1-butyl-3-methylpyridinium tetrafluoroborate]
surface tension liquid-gas: 45.6 ± 0.7 mN/m

COMPOUND: CCCCCC[n+]1ccccc1.O=S(=O)([N-]S(=O)(=O)C(F)(F)F)C(F)(F)F [1-hexylpyridinium bis(trifluromethylsulfonyl)imide]
surface tension liquid-gas: 33.3 ± 0.5 mN/m

COMPOUND: CCCC[n+]1ccccc1C.O=S(=O)([N-]S(=O)(=O)C(F)(F)F)C(F)(F)F
surface tension liquid-gas: 35.9 ± 0.6 mN/m

COMPOUND: CC[n+]1ccccc1.O=S(=O)([N-]S(=O)(=O)C(F)(F)F)C(F)(F)F [1-ethylpyridinium bis[(trifluoromethyl)sulfonyl]imide]
surface tension liquid-gas: 35.3 ± 0.6 mN/m

COMPOUND: CCCC[n+]1cccc(C)c1.O=S(=O)([O-])C(F)(F)F [1-butyl-3-methylpyridinium trifluoromethanesulfonate]
surface tension liquid-gas: 37.1 ± 0.6 mN/m

COMPOUND: CCCC[n+]1ccccc1.O=S(=O)([N-]S(=O)(=O)C(F)(F)F)C(F)(F)F [1-butylpyridinium bis[(trifluoromethyl)sulfonyl]imide]
surface tension liquid-gas: 34.4 ± 0.6 mN/m
